tgt: S. aureus GyrB ATPase (Staphylococcus aureus)
Sequence (P0A0K8 whole entry): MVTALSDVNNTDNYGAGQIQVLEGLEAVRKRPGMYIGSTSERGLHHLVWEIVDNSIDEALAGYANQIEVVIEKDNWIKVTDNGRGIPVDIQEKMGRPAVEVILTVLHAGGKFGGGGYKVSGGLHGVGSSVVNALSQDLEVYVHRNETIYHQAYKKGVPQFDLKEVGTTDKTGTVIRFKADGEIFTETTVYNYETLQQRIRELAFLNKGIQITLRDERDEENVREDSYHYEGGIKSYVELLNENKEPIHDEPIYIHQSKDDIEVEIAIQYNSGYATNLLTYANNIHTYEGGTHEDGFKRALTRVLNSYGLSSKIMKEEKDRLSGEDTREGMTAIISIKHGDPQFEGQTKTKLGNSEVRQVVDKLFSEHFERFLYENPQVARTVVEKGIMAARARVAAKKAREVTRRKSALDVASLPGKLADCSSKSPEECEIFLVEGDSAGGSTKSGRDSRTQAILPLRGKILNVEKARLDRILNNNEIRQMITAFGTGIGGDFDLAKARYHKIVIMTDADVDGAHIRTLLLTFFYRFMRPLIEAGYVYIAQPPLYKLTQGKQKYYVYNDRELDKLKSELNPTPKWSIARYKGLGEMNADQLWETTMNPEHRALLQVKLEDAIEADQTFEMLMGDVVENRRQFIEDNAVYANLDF
Sequence (P0AES4 whole entry, further chain): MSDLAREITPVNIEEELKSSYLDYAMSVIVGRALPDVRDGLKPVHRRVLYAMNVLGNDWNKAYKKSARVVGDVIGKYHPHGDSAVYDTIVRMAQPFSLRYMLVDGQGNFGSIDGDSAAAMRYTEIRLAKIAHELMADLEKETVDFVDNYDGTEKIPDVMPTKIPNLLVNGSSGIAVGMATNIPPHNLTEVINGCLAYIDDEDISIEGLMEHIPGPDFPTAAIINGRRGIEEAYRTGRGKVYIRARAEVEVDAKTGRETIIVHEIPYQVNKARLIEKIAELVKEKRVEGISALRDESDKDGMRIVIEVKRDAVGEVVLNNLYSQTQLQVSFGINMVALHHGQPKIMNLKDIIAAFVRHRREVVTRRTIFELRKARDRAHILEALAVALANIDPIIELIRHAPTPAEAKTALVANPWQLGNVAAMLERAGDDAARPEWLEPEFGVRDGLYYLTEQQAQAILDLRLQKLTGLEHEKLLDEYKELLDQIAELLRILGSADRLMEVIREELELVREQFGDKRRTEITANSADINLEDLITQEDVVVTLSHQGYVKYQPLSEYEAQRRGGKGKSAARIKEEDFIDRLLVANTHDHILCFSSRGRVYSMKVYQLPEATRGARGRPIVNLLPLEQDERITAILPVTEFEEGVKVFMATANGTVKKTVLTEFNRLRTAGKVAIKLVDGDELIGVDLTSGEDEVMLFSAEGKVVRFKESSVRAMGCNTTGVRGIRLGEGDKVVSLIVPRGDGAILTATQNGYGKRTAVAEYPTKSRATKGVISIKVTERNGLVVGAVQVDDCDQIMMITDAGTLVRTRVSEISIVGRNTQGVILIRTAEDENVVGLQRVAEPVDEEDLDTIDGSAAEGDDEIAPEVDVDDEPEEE
protocol.notes: biochemical
stated.conditions: compound at 1 μM; one value per test if tested more than once; read-out: % Inhibition of S. aureus GyrB ATPase
Description: S. aureus GyrB ATPase Inhibition Activity: Compounds may be tested for inhibition of S. aureus GyrB ATPase activity using an ammonium molybdate/malachite green-based phosphate detection assay (Lanzetta, P. A., L. J. Alvarez, P. S. Reinach, and O. A. Candia, 1979, 100: 95-97). […] An IC50 measurement of compound potency for each compound can be determined from reactions performed in the presence of 10 different compound concentrations.
property.name: inhibition at 1 µM (%)
Field format: number, assumed %, no unit text.

The cases that follow already have their inhibition at 1 µM on record.
> print(dat)
                         compound.structure  value.unit  experimental.result
1  CCCNC(=O)Nc1cc(-c2nc(C(F)(F)F)cs2)c(-c2ccc3c(c2)c(=O)c(C(=O)O)cn3CCN(C)C)cn1           %                   95
2  CCNC(=O)Nc1cc(-c2nc(C(F)(F)F)cs2)c(-c2ccc3c(c2)c(=O)c(C(=O)O)cn3[C@H](CO)Cc2ccccc2)cn1           %                  103

# input Query inhibition at 1 µM on S. aureus GyrB ATPase (Staphylococcus aureus) for CCNC(=O)Nc1cc(-c2nc(C(F)(F)F)cs2)c(-c2ccc3c(c2)c(=O)c(C(=O)O)cn3CCO)cn1
# output 98

# input Query inhibition at 1 µM on S. aureus GyrB ATPase (Staphylococcus aureus) for CCNC(=O)Nc1cc(-c2nc(C(F)(F)F)cs2)c(-c2ccc3c(=O)c(C(=O)NC)cn(CCO)c3c2)cn1
# output 95

# input Query inhibition at 1 µM on S. aureus GyrB ATPase (Staphylococcus aureus) for CCCNC(=O)Nc1cc(-c2nc(C(F)(F)F)cs2)c(-c2ccc3c(c2)c(=O)c(C(=O)O)cn3C2CN(C)C2)cn1
# output 105

# input Query inhibition at 1 µM on S. aureus GyrB ATPase (Staphylococcus aureus) for CC(C)NC(=O)Nc1cc(-c2nc(C(F)(F)F)cs2)c(-c2ccc3c(c2)c(=O)c(C(=O)O)cn3CCN2CCOCC2)cn1
# output 98

# input Query inhibition at 1 µM on S. aureus GyrB ATPase (Staphylococcus aureus) for CCCn1cc(C(=O)NCCCO)c(=O)c2ccc(-c3cnc(NC(=O)NCC)cc3-c3nc(C(F)(F)F)cs3)cc21
# output 108

src = patent US8283361B2
